# Test system: 233499-124-R-J3-PDC complex spheroid viability
# procedure_text: Anticancer human tumor 233499-124-R-J3-PDC patient-derived colon adenocarcinoma cell line growth inhibition [CLK]; active means viability on the fitted dose curve at most 10% of control; inactive means the rest
# experimental_setup: second compound 1 µM; first compound 10 µM
Write down the outcome that applies. Available outcomes: class 1 (active), class 0 (inactive)

Please review the entries below; each comes with its answer.
{"compound": "CC(=O)O[C@H]1C(=O)[C@@]2(C)[C@H]([C@H](OC(=O)c3ccccc3)[C@]3(O)C[C@H](OC(=O)[C@H](O)[C@@H](NC(=O)c4ccccc4)c4ccccc4)C(C)=C1C3(C)C)[C@]1(OC(C)=O)CO[C@@H]1C[C@@H]2O + CNC(=O)c1ccc(Nc2nc(OC3CCCC3)c3c(-c4ccc5nc(C)oc5c4)c[nH]c3n2)c(OC)c1", "class_label": "class 0"}
{"compound": "CC(CO)NC(=O)c1cc(-c2ccc(Cl)cc2)nn(-c2cnn(C)c2)c1=O (stereo not given) + CN1CCN(c2cc(C(=O)Nc3cc4cc(-c5cnn(C)c5)ccc4cn3)ccn2)CC1", "class_label": "class 1"}
{"compound": "O=c1[nH]cc(F)c(=O)[nH]1 + CNC(=O)c1ccc(Nc2nc(OC3CCCC3)c3c(-c4ccc5nc(C)oc5c4)c[nH]c3n2)c(OC)c1", "class_label": "class 1"}

[ask] Just curious, what result did CCCS(=O)(=O)Nc1ccc(F)c(C(=O)c2c[nH]c3ncc(-c4ccc(Cl)cc4)cc23)c1F + CNC(=O)c1ccc(Nc2nc(OC3CCCC3)c3c(-c4ccc5nc(C)oc5c4)c[nH]c3n2)c(OC)c1 get here?
[reply] class 0

[ask] Answer briefly: the call reported for COc1ccc([C@@H](O)c2cc(-c3ncnc4cc(N5CCOCC5)ccc34)c(F)cc2Cl)nn1 + CN1CCN(c2cc(C(=O)Nc3cc4cc(-c5cnn(C)c5)ccc4cn3)ccn2)CC1 in this assay.
[reply] class 1

----------
# Tested on: 233499-124-R-J3-PDC complex spheroid viability
# procedure_text: Anticancer human tumor 233499-124-R-J3-PDC cell line growth inhibition [CLK];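 further: spheroids exposed to the drug combinations for seven days; percent viability relative to DMSO vehicle control wells taken as 100%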
# experimental_setup: second compound 3.16 µM; first compound 1 µM; hits give low values
Threshold 0.7%. viability, T/C below it: MET. viability, T/C at it or above: NOT MET.

{"compound": "CC(Nc1ccc2c(c1)OCCn1cc(N3C(=O)OCC3C(F)F)nc1-2)C(N)=O (stereo unspecified) + CNC(=O)c1ccc(Nc2nc(OC3CCCC3)c3c(-c4ccc5nc(C)oc5c4)c[nH]c3n2)c(OC)c1", "class_label": "NOT MET"}
{"compound": "COc1cccc2c1C(=O)c1c(O)c3c(c(O)c1C2=O)CC(O)(C(=O)CO)CC3OC1CC(N)C(O)C(C)O1 (stereo unspecified) + CN1CCN(c2cc(C(=O)Nc3cc4cc(-c5cnn(C)c5)ccc4cn3)ccn2)CC1", "class_label": "MET"}
{"compound": "C=CC(=O)N1CCN(c2nc(=O)n(-c3c(C)ccnc3C(C)C)c3nc(-c4c(O)cccc4F)c(F)cc23)C(C)C1 (stereo unspecified) + CNC(=O)c1ccc(Nc2nc(OC3CCCC3)c3c(-c4ccc5nc(C)oc5c4)c[nH]c3n2)c(OC)c1", "class_label": "NOT MET"}
{"compound": "COc1ccc([C@@H](O)c2cc(-c3ncnc4cc(N5CCOCC5)ccc34)c(F)cc2Cl)nn1 + CNC(=O)c1ccc(Nc2nc(OC3CCCC3)c3c(-c4ccc5nc(C)oc5c4)c[nH]c3n2)c(OC)c1", "class_label": "NOT MET"}
{"compound": "Nc1ccn(C2OC(CO)C(O)C2(F)F)c(=O)n1 (stereo unspecified) + CNC(=O)c1ccc(Nc2nc(OC3CCCC3)c3c(-c4ccc5nc(C)oc5c4)c[nH]c3n2)c(OC)c1", "class_label": "NOT MET"}

[ask] Lab note: confirm whether the reported viability, T/C for this compound is below 0.7%, equality not counting. compound: CCc1c2c(nc3ccc(O)cc13)-c1cc3c(c(=O)n1C2)COC(=O)[C@]3(O)CC + CN1CCN(c2cc(C(=O)Nc3cc4cc(-c5cnn(C)c5)ccc4cn3)ccn2)CC1
[reply] MET

[ask] Check if viability, T/C falls below 0.7% for O=c1[nH]cc(F)c(=O)[nH]1 + CN1CCN(c2cc(C(=O)Nc3cc4cc(-c5cnn(C)c5)ccc4cn3)ccn2)CC1 .
[reply] MET

[ask] Is the reported viability, T/C for Nc1ccn(C2OC(CO)C(O)C2(F)F)c(=O)n1 (stereo unspecified) + CN1CCN(c2cc(C(=O)Nc3cc4cc(-c5cnn(C)c5)ccc4cn3)ccn2)CC1 strictly below 0.7%?
[reply] MET

[ask] is_below(viability, T/C, 0.7%) for CC(CO)NC(=O)c1cc(-c2ccc(Cl)cc2)nn(-c2cnn(C)c2)c1=O (stereo unspecified) + CN1CCN(c2cc(C(=O)Nc3cc4cc(-c5cnn(C)c5)ccc4cn3)ccn2)CC1 ?
[reply] NOT MET

[ask] Could you please tell me whether viability, T/C recorded for CCCS(=O)(=O)Nc1ccc(F)c(C(=O)c2c[nH]c3ncc(-c4ccc(Cl)cc4)cc23)c1F + CNC(=O)c1ccc(Nc2nc(OC3CCCC3)c3c(-c4ccc5nc(C)oc5c4)c[nH]c3n2)c(OC)c1 is less than 0.7%?
[reply] NOT MET

----------
# System: 233499-124-R-J3-PDC complex spheroid viability
# procedure_text: Anticancer human tumor 233499-124-R-J3-PDC cell line growth inhibition [CLK];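 further: spheroids exposed to the drug combinations for seven days; percent viability relative to DMSO vehicle control wells taken as 100%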
# experimental_setup: second compound 10 µM; first compound 0.3 µM; hits give low values
Consider the following compounds and their measured viability, T/C readings.
// return numeric value only (unit: %, not printed)

Check out these entries, answers already filled in.
{"compound": "CC(C)CC(NC(=O)C(Cc1ccccc1)NC(=O)c1cnccn1)B(O)O (stereo not drawn) + CN1CCN(c2cc(C(=O)Nc3cc4cc(-c5cnn(C)c5)ccc4cn3)ccn2)CC1", "system_under_test": "233499-124-R-J3-PDC complex spheroid viability", "viability, T/C, %": 0.19}
{"compound": "NC(=O)C(=Cn1cnc(-c2cc(C(F)(F)F)cc(C(F)(F)F)c2)n1)c1cncnc1 + CN1CCN(c2cc(C(=O)Nc3cc4cc(-c5cnn(C)c5)ccc4cn3)ccn2)CC1", "system_under_test": "233499-124-R-J3-PDC complex spheroid viability", "viability, T/C, %": 0.17}

// next item, viability, T/C requested
[ask] Supply viability, T/C value. Item: C=CC(=O)Nc1cc(Nc2nccc(-c3cn(C)c4ccccc34)n2)c(OC)cc1N(C)CCN(C)C + CNC(=O)c1ccc(Nc2nc(OC3CCCC3)c3c(-c4ccc5nc(C)oc5c4)c[nH]c3n2)c(OC)c1
[reply] 61.7

----------
# Tested on: 233499-124-R-J3-PDC complex spheroid viability
# procedure_text: Anticancer human tumor 233499-124-R-J3-PDC cell line growth inhibition [CLK]; active means viability on the fitted dose curve at most 10% of control; inactive means the rest;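 further: spheroids exposed to the drug combinations for seven days; percent viability relative to DMSO vehicle control wells taken as 100%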
# experimental_setup: second compound 10 µM; first compound 10 µM
Lab note: assign the record to one of active, inactive

{"molecule": "CC(=O)O[C@H]1C(=O)[C@@]2(C)[C@H]([C@H](OC(=O)c3ccccc3)[C@]3(O)C[C@H](OC(=O)[C@H](O)[C@@H](NC(=O)c4ccccc4)c4ccccc4)C(C)=C1C3(C)C)[C@]1(OC(C)=O)CO[C@@H]1C[C@@H]2O + CNC(=O)c1ccc(Nc2nc(OC3CCCC3)c3c(-c4ccc5nc(C)oc5c4)c[nH]c3n2)c(OC)c1", "class_label": "inactive"}

[ask] How did this test come out for O=C(c1cc(Cc2n[nH]c(=O)c3ccccc23)ccc1F)N1CCN(C(=O)C2CC2)CC1 + CN1CCN(c2cc(C(=O)Nc3cc4cc(-c5cnn(C)c5)ccc4cn3)ccn2)CC1 ?
[reply] active

----------
Below: a set of entries, each annotated with reported viability, T/C.
# Tested on: 233499-124-R-J3-PDC complex spheroid viability
# procedure_text: Anticancer human tumor 233499-124-R-J3-PDC cell line growth inhibition [CLK];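 further: spheroids exposed to the drug combinations for seven days; percent viability relative to DMSO vehicle control wells taken as 100%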
# experimental_setup: second compound 0.1 µM; first compound 0.000949 µM; hits give low values
Give the value in % but do not write % after it.

Please review the entries below; each comes with its answer.
{"molecule": "C=CC(=O)Nc1cc(Nc2nccc(-c3cn(C)c4ccccc34)n2)c(OC)cc1N(C)CCN(C)C + CN1CCN(c2cc(C(=O)Nc3cc4cc(-c5cnn(C)c5)ccc4cn3)ccn2)CC1", "value_reported": 98}
{"molecule": "CC(C)CC(NC(=O)C(Cc1ccccc1)NC(=O)c1cnccn1)B(O)O (centres undefined) + CN1CCN(c2cc(C(=O)Nc3cc4cc(-c5cnn(C)c5)ccc4cn3)ccn2)CC1", "value_reported": 86.1}

[ask] Query viability, T/C for CC(C)CC(NC(=O)C(Cc1ccccc1)NC(=O)c1cnccn1)B(O)O (centres undefined) + CNC(=O)c1ccc(Nc2nc(OC3CCCC3)c3c(-c4ccc5nc(C)oc5c4)c[nH]c3n2)c(OC)c1
[reply] 81.5

[ask] Let me know recorded viability, T/C for C=CC(=O)Nc1cc(Nc2nccc(-c3cn(C)c4ccccc34)n2)c(OC)cc1N(C)CCN(C)C + CNC(=O)c1ccc(Nc2nc(OC3CCCC3)c3c(-c4ccc5nc(C)oc5c4)c[nH]c3n2)c(OC)c1 , thanks.
[reply] 69.8
